// provenance: patent US11767341B2

System: E. coli ATCC 25922
EXPERIMENT SUMMARY: MIC determination
Type: cell-based
TEST PARAMETERS: Escherichia coli, ATCC25922, E. coli ATCC 25922; read-out: MIC
READOUT KIND: MIC

COMPOUND: CSC1O[C@H]([C@H](NC(=O)[C@H]2NC[C@@H]3C[C@@H](c4cc(F)cc(F)c4)CCO[C@H]32)[C@H](C)Cl)C(O)[C@@H](O)[C@H]1O (stereo partly drawn) [FSA-511080]
READOUT KIND: MIC
OBSERVED MEASUREMENT: > 64 µg/mL

COMPOUND: CSC1O[C@H]([C@H](NC(=O)[C@H]2NC[C@@H]3C[C@@H](CCc4ccccc4)CCO[C@H]32)[C@H](C)Cl)C(O)[C@@H](O)[C@H]1O (stereo partly drawn) [FSA-510021]
READOUT KIND: MIC
OBSERVED MEASUREMENT: 64 µg/mL

COMPOUND: CSC1O[C@H]([C@H](NC(=O)[C@H]2NC[C@@H]3CC(c4ccc(C(F)(F)F)cc4)=CCO[C@H]32)[C@H](C)Cl)C(O)[C@@H](O)[C@H]1O (stereo partly drawn) [FSA-507060]
READOUT KIND: MIC
OBSERVED MEASUREMENT: 64 µg/mL

COMPOUND: CSC1O[C@H]([C@H](NC(=O)[C@H]2NC[C@@H]3C[C@@H](c4ccc(F)cc4F)CCO[C@H]32)[C@H](C)Cl)C(O)[C@@H](O)[C@H]1O (stereo partly drawn) [FSA-511078]
READOUT KIND: MIC
OBSERVED MEASUREMENT: > 64 µg/mL

COMPOUND: CSC1O[C@H]([C@H](NC(=O)[C@H]2NC[C@@H]3CC(c4ccc(C)cc4)CCO[C@H]32)[C@H](C)Cl)C(O)[C@@H](O)[C@H]1O (stereo partly drawn) [FSA-511044]
READOUT KIND: MIC
OBSERVED MEASUREMENT: > 64 µg/mL

response.value for CSC1O[C@H]([C@H](NC(=O)[C@H]2NC[C@@H]3C=C(c4ccc(F)cc4F)CCO[C@@H]23)[C@H](C)Cl)C(O)[C@@H](O)[C@H]1O (stereo partly drawn) [FSA-511072] (field: MIC) = > 64 µg/mL

====

Tested on: S. pneumoniae UNT-038, MP-626, TP 160 (mefA)
Reported MIC values follow for various compounds

response.value for CSC1O[C@H]([C@H](NC(=O)[C@H]2NC[C@@H]3C[C@@H](O)[C@@H](O)CO[C@H]32)[C@H](C)Cl)C(O)[C@@H](O)[C@H]1O (stereo partly shown) (field: MIC) = 64 µg/mL

response.value for CSC1O[C@H]([C@H](NC(=O)[C@H]2NC[C@@H]3CC=CCO[C@H]32)[C@H](C)Cl)C(O)[C@@H](O)[C@H]1O (stereo partly shown) (field: MIC) = ≤ 0.0313 µg/mL

response.value for CSC1O[C@H]([C@H](NC(=O)[C@H]2NC[C@@H]3C[C@H]4OC(C)(C)O[C@H]4CO[C@H]32)[C@H](C)Cl)C(O)[C@@H](O)[C@H]1O (stereo partly shown) (field: MIC) = 16 µg/mL

response.value for CSC1O[C@H]([C@H](NC(=O)[C@H]2NC[C@@H]3C=CCO[C@@H]23)[C@H](C)Cl)C(O)[C@@H](O)[C@H]1O (stereo partly shown) (field: MIC) = 0.125 µg/mL
